Reference source: ChEMBL document CHEMBL1671662

System: Bifidobacterium dentium
assay-comment: Antibacterial activity against Bifidobacterium dentium by CLSI M11-A6 agar dilution method
Assay type: functional
measurement-type: MIC50 (µg/mL)
The response must be a number in µg/mL with no trailing unit.

Exam item: Recorded MIC50 for CCCCCCCCCC(=O)N[C@@H](Cc1c[nH]c2ccccc12)C(=O)N[C@H](CC(N)=O)C(=O)N[C@@H](CC(=O)O)C(=O)N[C@@H]1C(=O)NCC(=O)N[C@@H](CCCN)C(=O)N[C@@H](CC(=O)O)C(=O)N[C@H](C)C(=O)N[C@@H](CC(=O)O)C(=O)NCC(=O)N[C@H](CO)C(=O)N[C@@H]([C@H](C)CC(=O)O)C(=O)N[C@@H](CC(=O)c2ccccc2N)C(=O)O[C@@H]1C , please?
Marked response: 1

====

Test system: Holdemania filiformis
assay-comment: Antibacterial activity against Holdemania filiformis by CLSI M11-A6 agar dilution method
Format: functional
measurement-type: MIC50 (µg/mL)
The response must be a number in µg/mL with no trailing unit.

1) CCCCCCCCCC(=O)N[C@@H](Cc1c[nH]c2ccccc12)C(=O)N[C@H](CC(N)=O)C(=O)N[C@@H](CC(=O)O)C(=O)N[C@@H]1C(=O)NCC(=O)N[C@@H](CCCN)C(=O)N[C@@H](CC(=O)O)C(=O)N[C@H](C)C(=O)N[C@@H](CC(=O)O)C(=O)NCC(=O)N[C@H](CO)C(=O)N[C@@H]([C@H](C)CC(=O)O)C(=O)N[C@@H](CC(=O)c2ccccc2N)C(=O)O[C@@H]1C : 1
2) CN[C@H](CC(C)C)C(=O)N[C@H]1C(=O)N[C@@H](CC(N)=O)C(=O)N[C@H]2C(=O)N[C@H]3C(=O)N[C@H](C(=O)N[C@H](C(=O)O)c4cc(O)cc(O)c4-c4cc3ccc4O)[C@H](O)c3ccc(c(Cl)c3)Oc3cc2cc(c3O[C@@H]2O[C@H](CO)[C@@H](O)[C@H](O)[C@H]2O[C@H]2C[C@](C)(N)[C@H](O)[C@H](C)O2)Oc2ccc(cc2Cl)[C@H]1O : 0.5
3) CC(=O)NC[C@H]1CN(c2ccc(N3CCOCC3)c(F)c2)C(=O)O1 : 1

Exam item: Recorded MIC50 for Cc1ncc([N+](=O)[O-])n1CCO , please?
Marked response: 1

====

System: Ruminococcus lactaris
assay-comment: Antibacterial activity against Ruminococcus lactaris by CLSI M11-A6 agar dilution method
Format: functional
Measured MIC50 accompanies every entry in the list below.
The response must be a number in µg/mL with no trailing unit.

# annotated cases, reported MIC50 shown
1) CCCCCCCCCC(=O)N[C@@H](Cc1c[nH]c2ccccc12)C(=O)N[C@H](CC(N)=O)C(=O)N[C@@H](CC(=O)O)C(=O)N[C@@H]1C(=O)NCC(=O)N[C@@H](CCCN)C(=O)N[C@@H](CC(=O)O)C(=O)N[C@H](C)C(=O)N[C@@H](CC(=O)O)C(=O)NCC(=O)N[C@H](CO)C(=O)N[C@@H]([C@H](C)CC(=O)O)C(=O)N[C@@H](CC(=O)c2ccccc2N)C(=O)O[C@@H]1C : 1
2) CC(=O)NC[C@H]1CN(c2ccc(N3CCOCC3)c(F)c2)C(=O)O1 : 2

Exam item: Recorded MIC50 for CN[C@H](CC(C)C)C(=O)N[C@H]1C(=O)N[C@@H](CC(N)=O)C(=O)N[C@H]2C(=O)N[C@H]3C(=O)N[C@H](C(=O)N[C@H](C(=O)O)c4cc(O)cc(O)c4-c4cc3ccc4O)[C@H](O)c3ccc(c(Cl)c3)Oc3cc2cc(c3O[C@@H]2O[C@H](CO)[C@@H](O)[C@H](O)[C@H]2O[C@H]2C[C@](C)(N)[C@H](O)[C@H](C)O2)Oc2ccc(cc2Cl)[C@H]1O , please?
Marked response: 0.5
